# Test system: HeLa
# EXPERIMENTAL PROTOCOL: Cytotoxicity against Homo sapiens (human) HeLa cells assessed as cell viability at 10 uM after 72 hr by MTT assay
# Type: functional
# REPORTED CONDITIONS: read-out: Activity
TEST READOUT: viability at 10 µM (%)
// return numeric value only (unit: %, not printed)

Consider the following illustrative entries.
CHEM SMILES: Fc1ccc(-n2cc(Cn3c4ccc(F)cc4c4nc5ccccc5nc43)nn2)c(F)c1
viability at 10 µM, %: 86.8
//
CHEM SMILES: Fc1ccc(-n2cc(Cn3c4ccc(F)cc4c4nc5ccccc5nc43)nn2)cc1
viability at 10 µM, %: 91.9

Prompt: # return recorded viability at 10 µM for entry FC(F)(F)c1cccc(-n2cc(Cn3c4ccccc4c4nc5ccccc5nc43)nn2)c1
Completion: 76.9
